FYI, the data here is from ChEMBL document CHEMBL1159163.

# test-protocol: pKa2 (heterocyclic ring)
# Format: physicochemical
# test-parameters: read-out: pKa2
In this section, each of the molecules is paired with its reported pKa.
assay-endpoint: pKa

- query-smiles: "Cc1nc(N)sc1CCN"
  measurement: 5.4
- query-smiles: "Cc1nc(N)[se]c1CCN"
  measurement: 5.78
- query-smiles: "NCCc1c[nH]cn1"
  measurement: 5.93

###

In this section, each of the molecules is paired with its reported pKa.
# test-protocol: pKa1 (aliphatic amine)
# Assay type: physicochemical
# test-parameters: read-out: pKa1

- query-smiles: "Cc1nc(N)[se]c1CCN"
  pKa: 9.21
- query-smiles: "NCCc1c[nH]cn1"
  pKa: 9.32
- query-smiles: "Cc1nc(N)sc1CCN"
  pKa: 9.15
